- System name: T1, human δ opioid receptor (human, UniProt P41143 1-372)
- T1 construct: whole, on cells; membrane preparations of the transfected cells were used; also called hDOR; DOR
- T1 sequence (P41143 whole entry, stated change not applied): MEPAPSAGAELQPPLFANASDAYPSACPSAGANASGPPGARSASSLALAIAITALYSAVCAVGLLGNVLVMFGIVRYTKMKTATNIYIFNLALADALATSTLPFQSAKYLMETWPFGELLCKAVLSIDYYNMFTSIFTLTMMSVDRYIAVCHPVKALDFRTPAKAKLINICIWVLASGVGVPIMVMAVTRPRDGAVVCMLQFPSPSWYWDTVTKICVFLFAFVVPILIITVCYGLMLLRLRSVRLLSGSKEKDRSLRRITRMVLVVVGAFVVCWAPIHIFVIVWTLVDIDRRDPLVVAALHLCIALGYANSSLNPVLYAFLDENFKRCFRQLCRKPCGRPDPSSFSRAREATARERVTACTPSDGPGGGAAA
- Protocol description: competition vs [3H]DPDPE, hDOR cell membranes
Bridge positions count the residues as written; N and C are the ends. Square brackets hold non-standard residues; d marks the D form. Ends that are not written are not given here. * marks the point of attachment. NH(3,5-(CF3)2-benzyl) = FC(F)(F)c1cc(CN*)cc(C(F)(F)F)c1; Nle = CCCC[C@H](N)C(=O)O
Examples of binders with documented LogIC50 follow.
Lab note: jot the number down without any unit.

Worked set:
[
  {
    "Binder": "Y[dA]GFMPLW-{NH(3,5-(CF3)2-benzyl)} (also called TY027) [TyrDAlaGlyPheMetProLeuTrpNHBn(CF3)2]",
    "LogIC50": -8.8
  },
  {
    "Binder": "Y[dC]GF[Nle]PCW-{NH(3,5-(CF3)2-benzyl)} (disulfide 2-7, cyclic; also called TY035; [D-Cys2, Cys7]TY027) [Tyr[DCysGlyPheNleProCys]TrpNHBn(CF3)2]",
    "LogIC50": -8.6
  }
]

Return reported LogIC50; argument: Y[dC]GF[dC]PLW-{NH(3,5-(CF3)2-benzyl)} (disulfide 2-5, cyclic; also called TY037; [D-Cys2, D-Cys5]TY027) [Tyr[DCysGlyPheDCys]ProLeuTrpNHBn(CF3)2]
-7.8

Same lookup for Y[dC]GF[Nle]P[dC]W-{NH(3,5-(CF3)2-benzyl)} (disulfide 2-7, cyclic; also called TY038; [D-Cys2, D-Cys7]TY027) [Tyr[DCysGlyPheNleProDCys]TrpNHBn(CF3)2] , please.
-6.9

Query Y[dC]GFCPLW-{NH(3,5-(CF3)2-benzyl)} (disulfide 2-5, cyclic; also called TY039; [D-Cys2, Cys5]TY027) [Tyr[DCysGlyPheCys]ProLeuTrpNHBn(CF3)2] next
-7.6
